B1: library; numbered along this chain (parent)
chain: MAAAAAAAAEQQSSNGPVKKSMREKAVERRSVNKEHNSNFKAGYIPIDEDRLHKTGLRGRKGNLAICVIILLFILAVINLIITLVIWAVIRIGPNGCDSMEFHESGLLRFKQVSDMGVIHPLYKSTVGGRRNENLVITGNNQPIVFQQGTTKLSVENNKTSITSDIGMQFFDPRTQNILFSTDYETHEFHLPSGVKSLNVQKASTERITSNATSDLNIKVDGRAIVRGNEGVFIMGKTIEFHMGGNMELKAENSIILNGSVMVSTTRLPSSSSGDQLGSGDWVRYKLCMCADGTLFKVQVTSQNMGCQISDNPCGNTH

# Variants of: B1
# Assay Notes: SGCB cell-surface expression functional score (HA stain, bin4 vs bin1, normalised to synonymous) (log10 ratio); higher = more cell-surface SGCB (functional)
Outcome Measure: SGCB cell-surface expression functional score (log10)

// solved cases for SGCB cell-surface expression functional score (log10) follow
mutation_key=T138D reported=-0.39
mutation_key=V18D reported=0.09
mutation_key=L122Q reported=0.48

// query Indicate the recorded SGCB cell-surface expression functional score (log10) value for this variant: W282Y
// result -0.08

// query Tell us which SGCB cell-surface expression functional score (log10) value is on record for V89G
// result -0.36
